Consider the following pKi data for Estrogen receptor (Homo sapiens), collected from several reports.
One number for each entry, as −log10 of the molar value.

Field: example entries. Status: answers known.
- Molecule: "Oc1ccc2c(c1)C(c1ccc(OCCN3CCCCC3)cc1)c1c(sc3cc(O)ccc13)C2 (centres undefined)"
  pKi: 9.30
- Molecule: "O=C(O)CCCCCCC(=O)Nc1ccc(C2=C(c3ccc(O)cc3)C3CC(S(=O)(=O)Oc4ccc(Br)cc4)C2O3)cc1 (racemic)"
  pKi: 6.90
- Molecule: "CCCCCNC(=O)/C=C/c1ccc(C(=C2C3CC4CC(C3)CC2C4)c2ccc(O)cc2)cc1"
  pKi: 9.13

For each of the molecules below, state pKi.
1. O=C(/C=C/c1ccc(C(=C2C3CC4CC(C3)CC2C4)c2ccc(O)cc2)cc1)NCC(F)(F)F
2. CC(C)Cc1cc(O)c(=O)n(Cc2ccc3ccccc3c2)c1-c1ccnc(Cc2ccccc2)c1
3. CC(=O)c1ccc(C2=C(c3ccc(O)cc3)Cc3cc(O)ccc32)cc1
4. CCCCCC(=O)/C=C/c1ccc(C(=C2C3CC4CC(C3)CC2C4)c2ccc(O)cc2)cc1
5. CN(CCCc1ccc(Cl)cc1)c1nc(NCCc2ccc(O)cc2)nc(N2CCN(CC(=O)c3ccccc3)CC2)n1

Response:
1. 8.88
2. 5.38
3. 8.14
4. 8.77
5. 5.69
